The values you see were collected from paper PMC6510891.

Target: T1, HpRap1A (Hansenula polymorpha DL-1, UniProt W1Q7Z6 1-613)
T1 sequence: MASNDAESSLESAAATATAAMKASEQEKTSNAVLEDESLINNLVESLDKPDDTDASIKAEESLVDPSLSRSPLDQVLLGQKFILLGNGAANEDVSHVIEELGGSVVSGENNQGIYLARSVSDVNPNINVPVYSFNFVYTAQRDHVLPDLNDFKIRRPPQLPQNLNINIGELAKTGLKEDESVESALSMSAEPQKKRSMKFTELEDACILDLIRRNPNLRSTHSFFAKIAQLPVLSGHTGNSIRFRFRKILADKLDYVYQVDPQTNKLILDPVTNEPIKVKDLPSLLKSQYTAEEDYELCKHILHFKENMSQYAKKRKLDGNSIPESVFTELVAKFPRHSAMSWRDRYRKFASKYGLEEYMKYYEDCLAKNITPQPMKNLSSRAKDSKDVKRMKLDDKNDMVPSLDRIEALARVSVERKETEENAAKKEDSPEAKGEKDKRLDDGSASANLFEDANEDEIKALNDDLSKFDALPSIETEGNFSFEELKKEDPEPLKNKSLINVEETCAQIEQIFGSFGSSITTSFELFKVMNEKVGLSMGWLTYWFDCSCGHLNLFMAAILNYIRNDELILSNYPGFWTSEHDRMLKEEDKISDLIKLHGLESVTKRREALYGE
Test: SPR; SPR: 10 mM HEPES-NaOH pH 7.5, 150 mM NaCl, 0.5 mM DTT, 0.05% Tween 20, 1 mg/ml BSA, 0.02 mg/ml salmon sperm DNA; competition 2 nM protein with 20 or 200 nM competitor. EMSA: 20 mM HEPES-NaOH pH 7.5, 50 mM NaCl, 0.2 mg/ml BSA, 5% glycerol, 0.1 mg/ml salmon sperm DNA, room temperature
Details: protein: recombinant; 3' overhang 20 nt on strand 2
value kind: binding result

RPS22b (dsDNA) DNA 1: AATGTTCGGTTCGAGGAGTTCTT DNA 2: AAGAACTCCTCGAACCGAACATTCCTCTACGTCCTCCTGCTCC    no binding
HANPO2 (SPR) (dsDNA) DNA 1: GGGTGGCGGGGTGGCG DNA 2: CGCCACCCCGCCACCCCCTCTACGTCCTCCTGCTCC    no binding
RPS14 (dsDNA) DNA 1: GTGTTCAGGTGTGAGGTGTGTTT DNA 2: AAACACACCTCACACCTGAACACCCTCTACGTCCTCCTGCTCC    no binding
